Item-by-item account of pest or weed control at 320 g/ha
# System: Matricaria inodora (MATIN)
# measurement_notes: Post-emergence herbicidal action, greenhouse pot trial
# Format: in vivo
# particulars: Tripleurospermum inodorum, 504 h, 320 g/ha, visual rating after about 3 weeks, read-out: Post-emergence effect at 320 g/ha against MATIN in %

Below, 4 compounds whose answers are already recorded.
Recall the recorded pest or weed control at 320 g/ha for COC(=O)C(Oc1nn(-c2ncccc2F)c(-c2ccc(F)nc2)c1Br)SC (single isomer, unassigned) [Example I-26] with Matricaria inodora (MATIN) and state it.
90%

Recall the recorded pest or weed control at 320 g/ha for CCOC(=O)C(Oc1nn(-c2ncccc2F)c(-c2ccc(F)nc2)c1Cl)SC (stereo not shown) [Example I-19] with Matricaria inodora (MATIN) and state it.
90%

Recall the recorded pest or weed control at 320 g/ha for CCOC(=O)C(Oc1nn(-c2ncccc2F)c(-c2ccc(F)nc2)c1C(F)(F)F)SC (stereo not shown) [Example I-09] with Matricaria inodora (MATIN) and state it.
80%

Recall the recorded pest or weed control at 320 g/ha for CCOC(=O)C(Oc1nn(-c2ncccc2F)c(-c2ccc(F)nc2)c1Br)SC (single isomer, unassigned) [Example I-28] with Matricaria inodora (MATIN) and state it.
90%

Next:
Recall the recorded pest or weed control at 320 g/ha for CCOC(=O)C(Oc1nn(-c2ccccc2F)c(-c2ccc(F)nc2)c1C(F)(F)F)SC (stereo not shown) [Example I-46] with Matricaria inodora (MATIN) and state it.
90%

Recall the recorded pest or weed control at 320 g/ha for COC(=O)C(Oc1nn(-c2ncccc2F)c(-c2ccc(F)nc2)c1Cl)SC (stereo not shown) [Example I-56] with Matricaria inodora (MATIN) and state it.
80%

Recall the recorded pest or weed control at 320 g/ha for CCOC(=O)C(Oc1nn(-c2ccccc2F)c(-c2ccc(F)nc2)c1Br)SC (single isomer, unassigned) [Example I-30] with Matricaria inodora (MATIN) and state it.
80%
